- System: gastric mucosa
- Experiment Description: Ulcerogenic activity (gastric lesions after oral dosing)
- Type: in vivo
- Test Settings: mice, oral 0.028 mmol/kg, 3 successive days, N = 5
Property: Number of Animals with Ulcer

O=C1NC(=Nc2nnc(C34CC5CC(CC(C5)C3)C4)s2)SC1=Cc1c(Cl)cccc1Cl: nil
COc1ccc2c(c1)c(CC(=O)O)c(C)n2C(=O)c1ccc(Cl)cc1 [Indomethacin, reference compound]: 4/5
O=C1NC(=Nc2nnc(C34CC5CC(CC(C5)C3)C4)s2)SC1=Cc1ccc([N+](=O)[O-])cc1: nil
O=C1NC(=Nc2nnc(C34CC5CC(CC(C5)C3)C4)s2)SC1=Cc1ccc(Br)cc1: nil

###

- Experimental System: ovine COX-1 (Ovis aries, UniProt P05979)
- Sequence (P05979 25-600): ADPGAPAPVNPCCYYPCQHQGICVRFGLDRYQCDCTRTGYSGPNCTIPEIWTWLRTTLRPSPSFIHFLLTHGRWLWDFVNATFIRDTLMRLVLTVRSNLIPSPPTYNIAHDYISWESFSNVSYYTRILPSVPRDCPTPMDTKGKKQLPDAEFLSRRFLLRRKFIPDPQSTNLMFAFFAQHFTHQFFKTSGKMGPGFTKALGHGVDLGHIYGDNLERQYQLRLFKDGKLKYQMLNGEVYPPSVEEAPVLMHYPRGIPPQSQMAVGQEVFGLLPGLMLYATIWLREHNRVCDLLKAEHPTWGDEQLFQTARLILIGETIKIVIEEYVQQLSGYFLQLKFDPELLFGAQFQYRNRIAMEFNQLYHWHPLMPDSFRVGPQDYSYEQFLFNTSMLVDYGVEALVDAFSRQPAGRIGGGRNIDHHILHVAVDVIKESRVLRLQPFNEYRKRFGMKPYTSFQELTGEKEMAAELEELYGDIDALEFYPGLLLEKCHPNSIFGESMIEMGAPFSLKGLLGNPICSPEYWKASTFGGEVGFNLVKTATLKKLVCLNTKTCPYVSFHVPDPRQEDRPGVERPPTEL
Property: pIC50
Note: pIC50 values are expressed as the negative base-10 logarithm of concentration in M.

Annotate the compound O=C1NC(=Nc2nnc(C34CC5CC(CC(C5)C3)C4)s2)SC1=Cc1c(Cl)cccc1Cl [Compound 14] with its measured pIC50.
5.02

The reported numbers originate from paper PMC10142904.
